# System: soybean (Glycine max L., var. Pella 86, SOY)
# EXPERIMENT SUMMARY: Pre-emerge test, crop damage soybean
# Assay type: in vivo
# EXPERIMENTAL CONTEXT: var. Pella 86, Glycine max (soybean), in vivo, 14 days
MEASURED ENDPOINT: Pre-emerge crop damage SOY (phytotoxicity rating)
Just the number.

Dear colleague, I am looking for the recorded Pre-emerge crop damage SOY (phytotoxicity rating) of the following compound: Cn1nc(-c2c(F)cc3c4c2NC(=O)CN4C(=O)CO3)c(Cl)c1C(F)(F)F [1-13] 50

Form field: reported Pre-emerge crop damage SOY (phytotoxicity rating) of Cn1nc(-c2c(F)cc3c4c2NC(=O)CN4C(=O)C(C)(C)O3)c(Cl)c1C(F)(F)F [1-52] 50

Give its Pre-emerge crop damage SOY (phytotoxicity rating) value. Item: Cn1nc(-c2c(F)cc3c4c2NC(=O)C(C)(C)N4C(=O)CO3)c(Cl)c1C(F)(F)F [1-15] 50

Fill blank: measured Pre-emerge crop damage SOY (phytotoxicity rating) of the compound C[C@H]1Oc2cc(F)c(-c3nn(C)c(C(F)(F)F)c3Cl)c3c2N(CC(=O)N3)C1=O [1-48] is ____. 40

I am curious: what Pre-emerge crop damage SOY (phytotoxicity rating) value has been reported for C[C@H]1Oc2cc(F)c(-c3nn(C)c(OC(F)F)c3Cl)c3c2N(CC(=O)N3)C1=O [1-55] ? 60

// returns reported Pre-emerge crop damage SOY (phytotoxicity rating) for input CC1C(=O)Nc2c(-c3nn(C)c(OC(F)F)c3Cl)c(F)cc3c2N1C(=O)CO3 (stereo not shown) [1-26] 98

Record request: Pre-emerge crop damage SOY (phytotoxicity rating) value, item Cn1nc(-c2c(F)cc3c4c2NC(=O)CN4C(=O)CO3)c(Cl)c1OC(F)F [1-25] 40

---

# Pre-emerge crop damage CORN (phytotoxicity rating) values compiled below
# System: field corn (Zea mays L., var. Dekalb 535, CORN)
# EXPERIMENT SUMMARY: Pre-emerge test, crop damage field corn
# Assay type: in vivo
# EXPERIMENTAL CONTEXT: var. Dekalb 535, Zea mays (field corn), in vivo, 14 days

Answered cases to consult:
> print(dat)
                                   molecule  result
1  Cn1nc(-c2c(F)cc3c4c2NC(=O)CN4C(=O)CO3)c(Cl)c1C(F)(F)F      90
2  CC1C(=O)Nc2c(-c3nn(C)c(OC(F)F)c3Cl)c(F)cc3c2N1C(=O)CO3 (stereo not shown)     100
3  C[C@H]1Oc2cc(F)c(-c3nn(C)c(C(F)(F)F)c3Cl)c3c2N(CC(=O)N3)C1=O      70

Alright, here's another molecule for you.
// returns reported Pre-emerge crop damage CORN (phytotoxicity rating) for input Cn1nc(-c2c(F)cc3c4c2NC(=O)CN4C(=O)C(C)(C)O3)c(Cl)c1C(F)(F)F 50

---

# Test system: upland rice (Oryza sp., var.Tebonnet, RICE)
# EXPERIMENT SUMMARY: Pre-emerge test, crop damage upland rice
# Format: in vivo
# EXPERIMENTAL CONTEXT: pre-emerge, 250 g ai/ha, 14 days after application, rating scale 0-100 (0 no damage, 100 complete death)
MEASURED ENDPOINT: Pre-emerge crop damage RICE (phytotoxicity rating)
API doc: respond with a numeric literal and nothing else, no unit.

A selection of reference data follows.
> print(dat)
                                   molecule  recorded.number
1  CCC1C(=O)Nc2c3c(cc(F)c2-n2c(=O)cc(C(F)(F)F)n(C)c2=O)OCC(=O)N31 (centres unmarked)               99
2  CC(C)C1C(=O)Nc2c3c(cc(F)c2-n2c(=O)cc(C(F)(F)F)n(C)c2=O)OCC(=O)N31 (centres unmarked)               99
3  Cn1nc(-c2c(F)cc3c4c2NC(=O)C(c2ccccc2)N4C(=O)CO3)c(Cl)c1OC(F)F (centres unmarked)               10
4  CC1C(=O)N(C)c2c(-c3nn(C)c(OC(F)F)c3Cl)c(F)cc3c2N1C(=O)CO3 (centres unmarked)               50

Reported Pre-emerge crop damage RICE (phytotoxicity rating) for upland rice (Oryza sp., var.Tebonnet, RICE), given CC1Oc2cc(F)c(-c3nn(C)c(OC(F)F)c3Cl)c3c2N(CC(=O)N3)C1=O (centres unmarked) ? 75

What Pre-emerge crop damage RICE (phytotoxicity rating) appears in the records for this molecule with upland rice (Oryza sp., var.Tebonnet, RICE)? O=C1CN2C(=O)COc3cc(F)c(-n4nnn(CCCF)c4=O)c(c32)N1 10

Query for upland rice (Oryza sp., var.Tebonnet, RICE): what Pre-emerge crop damage RICE (phytotoxicity rating) does the record show for CC1C(=O)Nc2c(-c3nn(C)c(OC(F)F)c3Cl)c(F)cc3c2N1C(=O)C(C)(C)O3 (centres unmarked) ? 70

Item: Cc1nn(-c2c(F)cc3c4c2NC(=O)C(C)N4C(=O)CO3)c(=O)n1C(F)F (centres unmarked) Test system: upland rice (Oryza sp., var.Tebonnet, RICE) Read-out: Pre-emerge crop damage RICE (phytotoxicity rating) Value: ? 99

---

Quick reference for Pre-emerge crop damage WHEAT (phytotoxicity rating) among some molecules
# Test system: wheat (Triticum aestivum)
# EXPERIMENT SUMMARY: Pre-emerge test, crop damage wheat
# Assay type: in vivo
# EXPERIMENTAL CONTEXT: pre-emerge, 250 g ai/ha, 14 days after application, rating scale 0-100 (0 no damage, 100 complete death)
In your answer, state the number alone without any accompanying words.

Field: example entries. Status: answers known.
> print(dat)
                                   molecule  recorded.number
1  C[C@@H]1Oc2cc(F)c(-c3nn(C)c(C(F)(F)F)c3Cl)c3c2N(CC(=O)N3)C1=O               60
2  Cn1nc(-c2c(F)cc3c4c2NC(=O)C(c2ccccc2)N4C(=O)CO3)c(Cl)c1OC(F)F (stereo not shown)               10
3  Cc1nn(-c2c(F)cc3c4c2NC(=O)CN4C(=O)CO3)c(=O)n1C(F)F               90

Which Pre-emerge crop damage WHEAT (phytotoxicity rating) value is on record for O=C1CN2C(=O)COc3cc(F)c(-n4nnn(CCCF)c4=O)c(c32)N1 ? 0

Given the entry Cn1nc(-c2c(F)cc3c4c2NC(=O)CN4C(=O)C(C)(C)O3)c(Cl)c1OC(F)F , report its measured Pre-emerge crop damage WHEAT (phytotoxicity rating). 45

Look at this molecule and give its reported Pre-emerge crop damage WHEAT (phytotoxicity rating). CCC1C(=O)Nc2c3c(cc(F)c2-n2c(=O)cc(C(F)(F)F)n(C)c2=O)OCC(=O)N31 (stereo not shown) 100

Could you tell me which Pre-emerge crop damage WHEAT (phytotoxicity rating) is on file for CC1Oc2cc(F)c(-c3nn(C)c(OC(F)F)c3Cl)c3c2N(CC(=O)N3)C1=O (stereo not shown) ? 55

Value lookup for Pre-emerge crop damage WHEAT (phytotoxicity rating); key = CC1C(=O)Nc2c(-c3nn(C)c(C(F)(F)F)c3Cl)c(F)cc3c2N1C(=O)C(C)(C)O3 (stereo not shown) 0

---

# Test system: upland rice (Oryza sp., var.Tebonnet, RICE)
# EXPERIMENT SUMMARY: Post-emerge test, crop damage upland rice
# Assay type: in vivo
# EXPERIMENTAL CONTEXT: post-emerge, 250 g ai/ha, 14 days after application, rating scale 0-100 (0 no damage, 100 complete death)
Exam item: assign yes (1) to entries whose Post-emerge crop damage RICE (phytotoxicity rating) is below 60 and no (0) to entries at or above 60. Note that a value of exactly 60 receives no (0).

Please review the entries below; each comes with its answer.
> print(dat)
                                   compound                          target.or.system  category.label
1  CCC1C(=O)Nc2c3c(cc(F)c2-n2c(=O)cc(C(F)(F)F)n(C)c2=O)OCC(=O)N31 (centres unmarked)  upland rice (Oryza sp., var.Tebonnet, RICE)          no (0)
2  CC1C(=O)Nc2c(-c3nn(C)c(C(F)(F)F)c3Cl)c(F)cc3c2N1C(=O)C(C)(C)O3 (centres unmarked)  upland rice (Oryza sp., var.Tebonnet, RICE)         yes (1)
3  CC1Oc2cc(F)c(-c3nn(C)c(OC(F)F)c3Cl)c3c2N(CC(=O)N3)C1=O (centres unmarked)  upland rice (Oryza sp., var.Tebonnet, RICE)          no (0)

Attention now turns to another entry.
I'd appreciate it if you could check whether C[C@@H]1Oc2cc(F)c(-c3nn(C)c(C(F)(F)F)c3Cl)c3c2N(CC(=O)N3)C1=O has Post-emerge crop damage RICE (phytotoxicity rating) smaller than 60. no (0)
